Where do the numbers come from? From ChEMBL document CHEMBL1268893.

test: Octanol-water partition coefficient, log P of the compound at pH 7.0
REPORTED_METRIC: logD

>>> reported_measurement("O=C1CN(/N=C/c2ccc([N+](=O)[O-])o2)C(=O)N1 [NITROFURANTOIN]")
-0.68

* * *

assay: Octanol-water partition coefficient, log P of the compound after partitioning between 0.1 M NaOH and 1-octanol by deuterium-free NMR method; format: physicochemical; details: 1-octanol/0.1 M NaOH
REPORTED_METRIC: logP

>>> reported_measurement("CCN(CC)CCOC(=O)c1ccc(N)cc1")
0.9

* * *

assay: Octanol-water partition coefficient, log P of the compound by deuterium-free NMR method; type: physicochemical
Each entry below carries its recorded logP.
REPORTED_METRIC: logP

>>> reported_measurement("CC(=O)Oc1ccccc1C(=O)O [ASPIRIN]")
1.15
>>> reported_measurement("CC[C@H]1OC(=O)[C@H](C)[C@@H](O[C@H]2C[C@@](C)(OC)[C@@H](O)[C@H](C)O2)[C@H](C)[C@@H](O[C@@H]2O[C@H](C)C[C@H](N(C)C)[C@H]2O)[C@](C)(O)C[C@@H](C)C(=O)[C@H](C)[C@@H](O)[C@]1(C)O [ERYTHROMYCIN]")
2.01
>>> reported_measurement("CCOc1ccc(NC(C)=O)cc1 [PHENACETIN]")
1.45
>>> reported_measurement("O=C1CN(/N=C/c2ccc([N+](=O)[O-])o2)C(=O)N1 [NITROFURANTOIN]")
-0.36
>>> reported_measurement("CC(=O)Nc1ccc(O)cc1 [ACETAMINOPHEN]")
0.29
